Cited source for all entries: PubChem BioAssay (NCI)

System: SK-MEL-5 melanoma
Method summary: NCI-60 one-dose screen, 48 h (100 = growth as untreated, 0 = no growth, -100 = all killed)
Test context: 10 µM unless noted
About 83,000 compounds went through this panel and 20% of them were active in at least one assay; those are over-represented in the sample as a whole.
Readout name: growth (%)
The reply should be a number in %, with the unit left off.

Use the examples below as a reference point.
[
  {
    "Compound": "O=C(Nc1ccsc1C(=O)NC1CCCCC1)c1ccc(F)cc1",
    "growth, %": 105
  },
  {
    "Compound": "O=C1/C(=C/c2cccc(O)c2)COc2ccc(O)cc21",
    "growth, %": 86.9
  },
  {
    "Compound": "O=c1nc2sc3nc4ccccc4cc3cc-2s1",
    "growth, %": 100
  }
]

Exam item: // lookup growth for CC1=CCC(OC(=O)C(C)(C)CCC(O)(C(=O)OC2(C(C)C)CCC3(C)OC3C2)C(C)C)(C(C)C)CC1 (stereo not given)
Marked response: -97.2

Exam item: Using the record for O=C(Cn1cc(COc2ncnc3c2cnn3-c2ccccc2)nn1)Nc1ccccn1 , report its growth.
Marked response: 92.3

Exam item: # input compound: Cc1ccc(F)cc1NC(=O)c1cc(Cl)ccc1Nc1ccccc1 ; wanted: its growth
Marked response: 70.9

Exam item: # get_value(readout='growth', item= COc1ccc(C2=NN(/C=C3\SC(=O)NC3=Nc3ccc(F)cc3)C(c3ccc(F)cc3)C2)cc1 (stereo not given) )
Marked response: 92

Exam item: Which growth value belongs to O=c1c(-c2nc3ccccc3[nH]2)cc2ccccc2n1Cc1cn(Cc2ccc(N3CCOCC3)cc2)nn1 ?
Marked response: 71.9

Exam item: Which value of growth has been reported for CS(=O)(=O)Nc1ccc(C(=O)NC(C(=O)NO)c2ccc(-c3cccc(F)c3)cc2)cc1 (stereo not given) in the records?
Marked response: 48

Exam item: If you can, please state the reported growth value of Cc1ccc2cccc(Oc3ccc(Nc4ncnc5onc(-c6ccccc6)c45)cc3)c2n1 .
Marked response: 46.3
